The measured values listed here are drawn from patent US8501741B2.

Quick reference: LD50 at 2 weeks of the listed items.
# assay_explanation: Acute toxicity test in NIH mice, limited dosage by gavage
# assay_context: both sexes, mouse, in vivo, po, 5000 mg/kg, single gavage, 2 weeks observation, read-out: LD50 of oral administration

[[record]]
molecule = "Cc1oc(=O)oc1CN1CCN(c2cc3c(cc2F)c(=O)c(C(=O)O)c2n3C(C)S2)CC1 (racemic) [(+/−) Prulifloxacin, reference compound]"
endpoint_label = "LD50 at 2 weeks"
result_value = "> 5000 mg/kg"


Please find the next molecule below.
// query // returns reported LD50 at 2 weeks for input Cc1oc(=O)oc1CN1CCN(c2cc3c(cc2F)c(=O)c(C(=O)O)c2n3[C@H](C)S2)CC1 [(−) Prulifloxacin]
// result > 5000 mg/kg
